# assay-system: RSV F protein (RSV-A) (respiratory syncytial virus, RSV-A) (UniProt P03420)
# Sequence (P03420 26-574): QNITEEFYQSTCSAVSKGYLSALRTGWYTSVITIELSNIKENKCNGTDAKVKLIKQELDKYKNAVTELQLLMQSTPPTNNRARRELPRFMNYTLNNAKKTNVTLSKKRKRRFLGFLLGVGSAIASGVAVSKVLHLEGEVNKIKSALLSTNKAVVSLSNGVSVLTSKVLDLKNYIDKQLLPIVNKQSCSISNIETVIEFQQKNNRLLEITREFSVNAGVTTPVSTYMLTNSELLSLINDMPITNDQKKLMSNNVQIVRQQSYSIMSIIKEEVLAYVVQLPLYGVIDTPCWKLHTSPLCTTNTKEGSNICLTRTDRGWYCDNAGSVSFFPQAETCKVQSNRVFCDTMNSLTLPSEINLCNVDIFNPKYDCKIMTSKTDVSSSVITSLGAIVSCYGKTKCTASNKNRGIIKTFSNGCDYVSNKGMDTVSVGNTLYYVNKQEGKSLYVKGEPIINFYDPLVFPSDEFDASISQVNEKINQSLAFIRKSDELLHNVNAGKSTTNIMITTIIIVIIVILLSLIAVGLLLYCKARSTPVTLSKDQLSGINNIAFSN
# method: cell-based or functional assay
Positions of bridges follow the written chain, without caps; N, C: chain ends. Non-standard residues stand in square brackets, D forms with d. Primed or numbered codes have the meaning given here. PEG6′ = not defined here
Hi there, I'd appreciate the recorded IC50, syncytia reduction assay for every entry that follows.
Answers are plain numbers, in µM.

Solved cases (3 shown):
binder	IC50, syncytia reduction assay, µM
Ac-[dS][dM][dC][dV][dN][dR][dP][dE][dW][dL][dL][dD][dW][dC]G[dT]G[dD][dD][PEG6′][dK]-NH2 (disulfide 3-14; also: cholesterol conjugate, trimer) [Chol-Ac-RSVP24-GDD(PEG6)K-trimer]	0.097
Ac-[dK][PEG6′]G[dH][dA][dC][dV][dN][dR][dP][dE][dW][dL][dL][dD][dW][dC]G[dR]G[dR][dR]-NH2 (disulfide 6-17; also: trimer, linkage not given here) [Ac-K(PEG6)G-RSVP26-GRR-trimer]	5.5
Ac-[dK][PEG6′][dD][dD]G[dS][dM][dC][dV][dN][dR][dP][dE][dW][dL][dL][dD][dW][dC]G[dT]-NH2 (disulfide 8-19; also: trimer, linkage not given here) [Ac-K(PEG6)DDG-RSVP24-trimer]	5.5

Here is the next item to consider.
IN: Recall and state the measured IC50, syncytia reduction assay for Ac-[dK][PEG6′]G[dA][dC][dR][dN][dE][dP][dH][dW][dL][dL][dD][dW][dC][dA][dA]-NH2 (disulfide 5-16; also: cholesterol (Chol) conjugate, site not given here, trimer) [Chol-Ac-K(PEG6)-RSVP20-trimer] .
OUT: 7.9
